System: Wolbachia pipientis
Assay: Anti-Wolbachia Cell-Based Screen
Assay type: functional
Parameters: scale not given: in the data most compounds retested in dose-response had high values
Conditions: 5 µM
About 13,000 (27%) of roughly 48,000 compounds showed an effect of 50% or more. Some of the results follow.
measuredMetric: Percent Effect (%)
Output spec: scalar in %, unitless text.

Examples with answers:
| molecule | measuredMetric | assayValue |
| --- | --- | --- |
| Cc1ccccc1CN(Cc1ccncc1)CC(C)C | Percent Effect | -4.812 |
| O=C(NC1CC1)[C@H]1CC[C@@H]2[C@@H](CCN2Cc2ccsc2)O1 | Percent Effect | -0.273 |
| CC(C)(C)c1c[nH]c([C@@H]2COCCN2C2CCNCC2)n1 | Percent Effect | -5.137 |
| CNc1cccc(C2CCCN(C(=O)Cc3ccccc3)C2)n1 (stereo not drawn) | Percent Effect | 110.2 |
| Fc1ccc2nc([C@H]3CCNC3)[nH]c2c1 | Percent Effect | -0.4881 |

GET /values?readout=Percent Effect&item= O=c1c2ccccc2nc2n1CCC2O (stereo not drawn)
1.424

Looking for the measured Percent Effect of COc1c(C)cnc(CN(C)C(=O)c2cccnc2N(C)C)c1C , can you help?
-5.056

What value of measured Percent Effect is listed for Cc1ccccc1C(N)c1ccncc1.Cl (stereo not drawn) ?
102.8

Param item = Cc1ccc(C(N)c2cccs2)cc1 (stereo not drawn) ; retrieve measured Percent Effect.
13.29

Recorded Percent Effect of CNc1cccc(C2CCCN(C(=O)c3cccnc3)C2)n1 (stereo not drawn) , please.
119.9

Query (molecule): CCCNC(=O)c1ccc(S(=O)(=O)NC2(COC)CCCC2)cc1 ; field requested: Percent Effect
-2.263

Which measured Percent Effect value corresponds to CNc1cccc(C2CCCN(C(=O)c3ccncc3)C2)n1 (stereo not drawn) ?
-7.86

Name the reported Percent Effect value associated with the molecule CNc1cccc(C2CCCN(C(=O)c3coc(C)n3)C2)n1 (stereo not drawn)
115.1

###

Test system: Wolbachia pipientis
Assay: Anti-Wolbachia Cell-Based Screen
Assay type: functional
Design: scale not given: in the data most compounds retested in dose-response had high values
Conditions: 5 µM
Screen size: about 48,000 compounds; about 13,000 (27%) showed an effect of 50% or more. The list shows a part of the results.
Attribute: Percent Effect
The figure you give is taken to be in %; do not add the unit.

Examples from the recorded data:
| compound | targetUnderTest | resultUnits | Percent Effect |
| --- | --- | --- | --- |
| Cn1ncc2c1NC(=O)CC2c1cc2c(cc1Cl)OCO2 (stereo not drawn) | Wolbachia pipientis | % | -77.33 |
| CS(=O)(=O)c1ccc(O[C@H]2COCCN(Cc3ccncc3)C2)cc1 | Wolbachia pipientis | % | 8.188 |
| CC(=O)N1CC[C@H]2CC(=O)N(C3CCCCC3)CC[C@H]2C1 | Wolbachia pipientis | % | -3.423 |

Would you mind telling me what Percent Effect value was observed for COc1cccc(CN2CCCC2c2ccc[nH]2)c1 (stereo not drawn) ?
13.97

Please look up its Percent Effect: O=C1CO[C@H]2CN(Cc3ccc4c(c3)OCO4)C[C@H]2N1
-13.01

Recorded Percent Effect of Cc1nc(N2CCCC2)nc2c1CCN(C(=O)c1ccoc1C)CC2 , please.
99.57

Given Cc1ccccc1CN1CCC[C@H]1c1nc(-c2cncnc2N)no1 , state its recorded Percent Effect.
-17.12

Param item = COc1cccc(C(=O)N2CCc3ncnc(C)c3CC2)c1 ; retrieve measured Percent Effect.
-6.547

May I ask what Percent Effect has been recorded for Cc1cc2cc(C(=O)N3CCN(CCO)[C@@H]4CS(=O)(=O)C[C@@H]43)ccc2o1 ?
-0.6581

Fill in: Percent Effect of CCOCCCNc1nc(O)cc(C2CC(=O)N(C)C2)n1 (stereo not drawn) is ___
-9.932

Percent Effect lookup needed for COC(=O)C(CNC(=O)Nc1nncs1)Cc1cccc(C)c1 (stereo not drawn) , thanks.
-9.936

###

Tested on: Wolbachia pipientis
Assay: Anti-Wolbachia Cell-Based Screen
Format: functional
Design: scale not given: in the data most compounds retested in dose-response had high values
Conditions: 5 µM
In all, about 48,000 compounds went through this assay and about 13,000 (27%) showed an effect of 50% or more. The list shows a part of the results.
measuredMetric: Percent Effect (%)
Enter your answer as a number in %; do not include the unit.

| compound | targetUnderTest | Percent Effect, % |
| --- | --- | --- |
| CS(=O)(=O)N1CC2(CCN(CC3CC3)C2)Cc2ccccc21 (centres undefined) | Wolbachia pipientis | 119.1 |
| Brc1ccc(NCCCOC2CCOCC2)nc1 | Wolbachia pipientis | 3.889 |
| CCN1C(=O)CC(c2cnn(C)c2)C12CCN(C(=O)C1CC=CC1)CC2 (centres undefined) | Wolbachia pipientis | -6.196 |
| CCOc1cc(C)c(-c2cc(N)[nH]n2)cc1OCC | Wolbachia pipientis | 103.8 |

Name the reported Percent Effect value associated with the compound Cc1cncc(C(=O)N2CC[C@@H]3[C@H]2CCC(=O)N3CCN(C)C)c1.O=C(O)C(F)(F)F.O=C(O)C(F)(F)F
-10.7

// query Percent Effect value for entry O=C(C1CC1)N1C[C@@H](F)[C@@H](OCc2nc3ccccc3o2)C1
-16.99

# query: Percent Effect of entry CCOc1ccccc1-c1noc(CN2CCN(CCOC)CC2)n1
9.475

# input compound: CCc1ccc(-c2c(C)c(-c3cnn(C)c3)nc(N)c2C#N)o1 ; wanted: its Percent Effect
7.382

# lookup: Percent Effect of Cc1cccc(CN2CCN(C(=O)c3cccnc3O)CC2)c1
-8.356

So what does the record say about Percent Effect for O=C(Cc1cccs1)N1CCC2(CCCN(CC3CCOCC3)C2)C1 (centres undefined) ?
-3.748

What Percent Effect value was documented for this compound, CCn1cc(-c2c(C)c(C3CCOC(C)(C)C3)nc(N)c2C#N)cn1 (centres undefined) ?
115.2

###

Tested on: Wolbachia pipientis
Assay: Anti-Wolbachia Cell-Based Screen
Type: functional
Set-up: scale not given: in the data most compounds retested in dose-response had high values
Settings: 5 µM
In all, about 48,000 compounds went through this assay and about 13,000 (27%) showed an effect of 50% or more. Some of the results follow.
This section presents compounds with their documented Percent Effect values.
Report only the number, with the unit % understood.

Solved cases below.
| compound | targetUnderTest | resultUnits | Percent Effect |
| --- | --- | --- | --- |
| CC1CCCCN1CCN(C)C(=O)c1cc(CN2CCC(O)CC2)on1 (centres undefined) | Wolbachia pipientis | % | 0.4872 |
| CCN1CC(C(=O)NCc2cccc(SC)c2)CC1=O (centres undefined) | Wolbachia pipientis | % | -13.72 |

# get_value(readout='Percent Effect', item= CCOCC(O)CN1CCN(C(=O)c2ccncc2)CC1 (centres undefined) )
2.226

Requested field: Percent Effect. Item: O=C(O)[C@]12CN(CC3CCC3)C[C@H]1CN(c1cnccn1)C2
5.69

Consider the compound CC(NC(=O)c1sccc1C1CC1)c1ccc2c(c1)CC(=O)N2 (centres undefined) and give its measured Percent Effect.
-4.532

# lookup: Percent Effect of CCOCC(O)CN1CCN(C(=O)c2cccc(F)c2)CC1 (centres undefined)
0.952

May I ask what Percent Effect has been recorded for COc1ccccc1C(C)CNC(=O)c1[nH]ncc1Br (centres undefined) ?
42.12

Would you kindly share the measured Percent Effect for CCN1CC(C(=O)N2CC(Oc3ccccc3F)C2)CC1=O (centres undefined) ?
-11.41

###

Catalogue of Percent Effect values
System: Wolbachia pipientis
Assay: Anti-Wolbachia Cell-Based Screen
Format: functional
Design: scale not given: in the data most compounds retested in dose-response had high values
Details: 5 µM
In all, about 48,000 compounds went through this assay and about 13,000 (27%) showed an effect of 50% or more. The list shows a part of the results.
Supply the numeric figure in %, leaving out any unit text.

Worked cases, answers included:
| molecule | resultUnits | Percent Effect |
| --- | --- | --- |
| Cc1nc(CNC(=O)NC2CCN(c3ncccn3)CC2)cs1 | % | 78.89 |
| COc1c(F)cc(-c2cn(CCn3c(C)cc(C)nc3=O)nn2)cc1Cl | % | -4.684 |
| CN1CCOC(CN(C(=O)CC2CCCC2)c2nccs2)C1 (configuration not stated) | % | -0.02384 |
| O=C(NCc1ccccn1)NC1CCCN(c2ncccn2)C1 (configuration not stated) | % | 20.37 |
| CN1CCOC(CN(C(=O)CCCn2cccn2)c2nccs2)C1 (configuration not stated) | % | 81.94 |

Return reported Percent Effect; argument: O=C(CN1CCOC(Cn2cccn2)C1)Nc1nccs1 (configuration not stated)
-0.2623

Fill in the blank: the reported Percent Effect of Cn1cc(N2CCCC(Nc3ccc4c(c3)CCCO4)C2=O)cn1 (configuration not stated) is ____.
3.281
